# Tested on: barnyardgrass (Echinochloa crus-galli)
# METHOD_SUMMARY: Test C flooded paddy test: barnyardgrass
# Format: in vivo
# ASSAY_CONTEXT: Flood (flooded paddy test), 62 g ai/ha; visual rating after 13 to 15 days, scale 0 to 100 (0 no effect, 100 complete control)
MEASURE: Plant response rating, Barnyardgrass
No unit in the answer, only the number.

# example entries with known answers
Cc1nn(-c2cncc(C(F)(F)F)c2)nc1C(=O)c1cccc(C(F)(F)F)c1    0
Cc1nn(-c2ccc(C(F)(F)F)cc2)nc1Oc1cnn(CC(F)(F)F)c1    0
Cc1nn(-c2ccc(C(F)(F)F)cc2)nc1Cc1cnn(CC(F)(F)F)c1    0

Problem: Query: Plant response rating, Barnyardgrass; subject: `Cc1nn(-c2cccc(C(F)(F)F)c2)nc1Oc1ccnc(C(F)(F)F)c1`
Result: 20

Problem: What measured Plant response rating, Barnyardgrass goes with `Cc1nn(-c2cccc([N+](=O)[O-])c2)nc1C(=O)c1cccc(C(F)(F)F)c1` ?
Result: 0

Problem: Endpoint output: Plant response rating, Barnyardgrass of `Cc1nn(-c2ccccc2[N+](=O)[O-])nc1C(=O)c1cccc(C(F)(F)F)c1` . Value?
Result: 0

----------
# Tested on: morningglory (Ipomoea spp.)
# METHOD_SUMMARY: Test A pre-/postemergence: morningglory
# Format: in vivo
# ASSAY_CONTEXT: Postemergence, 500 g ai/ha; visual rating on 0 to 100 scale (0 no effect, 100 complete control), approximately ten days
MEASURE: Morningglory plant response rating
Write no unit; give the number alone.

OCc1nn(-c2ccc(C(F)(F)F)cc2)nc1Oc1cccc(C(F)(F)F)c1    100
Cc1nn(-c2ccc(F)cc2)nc1Oc1cccc(OC(F)(F)F)c1    90
CSc1ccc(-n2nc(C)c(C(=O)c3cccc(C(F)(F)F)c3)n2)cc1    10

Problem: Item `Cc1nn(-c2ccc(Cl)cc2)nc1Oc1ccnc(C(F)(F)F)c1` has what recorded Morningglory plant response rating?
Result: 100

Problem: I'd like to know its Morningglory plant response rating. The compound in question is `Cc1nn(-c2ccc(C(F)(F)F)cc2)nc1Oc1ccc(Cl)c(C(F)(F)F)c1`
Result: 0

Problem: Query: Morningglory plant response rating; subject: `Cc1cc(Oc2nn(-c3ccc(F)cc3)nc2C)ccc1F`
Result: 0

Problem: Could you tell me which Morningglory plant response rating is on file for `Cc1nn(-c2ccccc2Cl)nc1C(=O)c1cccc(C(F)(F)F)c1` ?
Result: 0

Problem: Can you share its Morningglory plant response rating? I mean this compound: `Cc1nn(-c2ccc(F)cc2)nc1Cn1cnc(C(F)(F)F)c1`
Result: 100

Problem: Value lookup for Morningglory plant response rating; key = `Fc1ccc(-n2nc(F)c(Cc3ccnc(C(F)(F)F)c3)n2)cc1`
Result: 90

Problem: Using the record for `CCCc1nn(-c2ccc(F)cc2)nc1Cc1ccnc(C(F)(F)F)c1` , report its Morningglory plant response rating.
Result: 100

Problem: # Morningglory plant response rating lookup, item `CCc1nn(-c2ccc(C(F)(F)F)cn2)nc1Cc1cccc(C(F)(F)F)c1`
Result: 100

Problem: Fill in the blank: the reported Morningglory plant response rating of `Cc1nn(-c2cccc(C(F)(F)F)c2)nc1Oc1ccnc(C(F)(F)F)c1` is ____.
Result: 100

Problem: Requested read-out: Morningglory plant response rating. Entry: `Cc1nn(-c2ccc(F)cc2)nc1Oc1cc(C(F)(F)F)ccn1`
Result: 30

----------
Entries and their Plant response rating, Crabgrass, Large
# Tested on: crabgrass, large (large crabgrass, Digitaria sanguinalis)
# METHOD_SUMMARY: Test A pre-/postemergence: crabgrass, large
# Format: in vivo
# ASSAY_CONTEXT: Preemergence, 500 g ai/ha; 0 to 100 scale, 0 is no effect, 100 is complete control
Give the figure by itself; no unit, no explanation.

Cc1nn(-c2ccc(Cl)cc2)nc1Oc1ccnc(C(F)(F)F)c1    100
Cc1nn(-c2ccc(C(F)(F)F)cc2)nc1Oc1ccc(C(F)(F)F)cc1    0
CCc1nn(-c2ccc(C(F)(F)F)cn2)nc1Cc1cccc(C(F)(F)F)c1    100
COc1nn(-c2ccc(C(F)(F)F)cc2)nc1Cc1cccc(C(F)(F)F)c1    100
Cc1nn(-c2ccc(F)cc2)nc1Cc1ccnc(OCC(F)(F)F)c1    10
Cc1nn(-c2ccnc(F)c2)nc1C(=O)c1cccc(C(F)(F)F)c1    100
Cc1nn(-c2ccnc(Cl)c2)nc1C(=O)c1cccc(C(F)(F)F)c1    90
Cc1nn(-c2ccc([N+](=O)[O-])cc2)nc1C(=O)c1cccc(C(F)(F)F)c1    70

Problem: Dear colleague, I am looking for the recorded Plant response rating, Crabgrass, Large of the following compound: `Cc1nn(-c2ccc(C(F)(F)F)nc2)nc1C(=O)c1cccc(C(F)(F)F)c1`
Result: 90

----------
# System: barnyardgrass (Echinochloa crus-galli)
# METHOD_SUMMARY: Test A pre-/postemergence: barnyardgrass
# Assay type: in vivo
# ASSAY_CONTEXT: Postemergence, 125 g ai/ha; 0 to 100 scale, 0 is no effect, 100 is complete control
Measured Barnyardgrass plant response rating, listed per entry.
Please respond with just the number, no unit label.

// known answers, use as guide
COc1nn(-c2ccc(C(F)(F)F)cc2)nc1C(=O)c1ccnc(C(F)(F)F)c1 [Compound 75]    0
Cc1nn(-c2cncc(C(F)(F)F)c2)nc1C(=O)c1cccc(C(F)(F)F)c1 [Compound 66]    0
Cc1nn(-c2ccc(C(F)(F)F)cc2)nc1Cc1cnn(CC(F)(F)F)c1 [Compound 51]    0
Cc1nn(-c2ccc(F)cc2)nc1Oc1ccc(F)c(C(F)(F)F)c1 [Compound 56]    10
Cc1nn(-c2cccc(C(F)(F)F)n2)nc1C(=O)c1cccc(C(F)(F)F)c1 [Compound 57]    0
Cc1nn(-c2ccc(F)cc2Cl)nc1Cc1ccnc(C(F)(F)F)c1 [Compound 65]    10

Problem: Form entry - test system: barnyardgrass (Echinochloa crus-galli); read-out: Barnyardgrass plant response rating; molecule: Cc1nn(-c2ccc(F)cc2)nc1Oc1cccc(OC(F)(F)F)c1 [Compound 100]
Result: 10

Problem: So what Barnyardgrass plant response rating did Cc1nn(-c2ccc(F)cc2)nc1Cn1ccc(C(F)(F)F)n1 [Compound 2] get with barnyardgrass (Echinochloa crus-galli)?
Result: 0

----------
Listed here: items and their measured Plant response rating: Barley, Winter.
# System: barley, winter (winter barley, Hordeum vulgare)
# METHOD_SUMMARY: Test D pre-/postemergence: barley, winter
# Type: in vivo
# ASSAY_CONTEXT: Postemergence, 62 g ai/ha; scale 0 to 100 (0 no effect, 100 complete control)
Answer with a number only.

Field: example entries. Status: answers known.
CCOc1nn(-c2ccc(F)cc2)nc1Cc1ccnc(C(F)F)c1 [Compound 195]    15
Cc1nn(-c2ccc(F)c(C(F)(F)F)c2)nc1Oc1ccnc(C(F)(F)F)c1 [Compound 147]    25

Problem: Provide the documented Plant response rating: Barley, Winter with barley, winter (winter barley, Hordeum vulgare) as the system for Cc1nn(-c2ccc(F)c(F)c2)nc1Oc1ccnc(C(F)(F)F)c1 [Compound 145]
Result: 10

Problem: What Plant response rating: Barley, Winter appears in the records for this compound with barley, winter (winter barley, Hordeum vulgare)? Cc1nn(-c2ccnc(C(F)(F)F)c2)nc1Cc1ccnc(C(F)(F)F)c1 [Compound 137]
Result: 5

----------
# System: winter wheat (Triticum aestivum)
# METHOD_SUMMARY: Test C pre-/postemergence: winter wheat
# Assay type: in vivo
# ASSAY_CONTEXT: Preemergence, 125 g ai/ha; scale 0 to 100, 0 no effect, 100 complete control
# reported Plant response rating, Wheat; entries follow
Please respond with just the number, no unit label.

Solved entries (count: 3):
Cc1nn(-c2ccc(F)cc2)nc1Oc1ccnc(C(F)(F)F)c1 [Compound 129]    30
CCc1nn(-c2ccc(F)cc2)nc1Oc1ccnc(C(F)(F)F)c1 [Compound 166]    5
Cc1nn(-c2ccc(C(F)(F)F)cc2)nc1Cc1ccnc(C(F)(F)F)c1 [Compound 47]    35

Consider now this further molecule.
Problem: Request the reported Plant response rating, Wheat associated with CCCc1nn(-c2ccc(F)cc2)nc1Cc1ccnc(C(F)(F)F)c1 [Compound 153]
Result: 60

----------
# Test system: morningglory (Ipomoea spp.)
# METHOD_SUMMARY: Test A pre-/postemergence: morningglory
# Type: in vivo
# ASSAY_CONTEXT: Postemergence, 125 g ai/ha; 0 to 100 scale, 0 is no effect, 100 is complete control
We begin with a simple list: items and their reported Morningglory plant response rating.
Respond numerically, and do not add a unit to the figure.

The cases that follow already have their Morningglory plant response rating on record.
Cc1nn(-c2ccc(C(F)(F)F)cc2)nc1Oc1ccccc1Cl    0
Cc1nn(-c2ccc(F)cc2)nc1Oc1cc(C(F)(F)F)ccn1    30

# evaluate next
Problem: // lookup Morningglory plant response rating for `CSc1ccc(-n2nc(C)c(C(=O)c3cccc(C(F)(F)F)c3)n2)cc1`
Result: 0
